Data provenance is patent US20240408169A1.

Reported GI50 by item:
Test system: OVCAR3 cells
Test: MTT proliferation assay, OVCAR3;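 further: compound given as an 8- or 10-point series, one day after plating, with exposure covering roughly 3-4 cell doublings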
Type: cell-based
Conditions: 5 days compound exposure, 1:3 serial dilution starting at 10 μM
*1 amine or outer side, *2 acyl side, *3 side chain or, on linkers, in order; H or OH if unused. Where a SMILES comes first, the peptide text is derived from it. Bridges are numbered along the chain shown (N, C = ends). [ ]: non-standard residue; d: D form. The star is where a group is joined. X61 = Cc1nc2c(F)cc(-c3ccc(Cl)cc3C[C@@H](C(=O)[*:2])N(C)[*:1])cc2n1C(C)C; X42 = CN([C@@H](Cc1cc(Cl)ccc1-c1cnn(S(=O)(=O)C2CC2)c1)C(=O)[*:2])[*:1]; NMehhhLys(Me) = CN([C@@H](CCCCCCCN(C)[*:3])C(=O)[*:2])[*:1]; cBuCO(3,3-F2-1-CF3) = O=C(C1(C(F)(F)F)CC(F)(F)C1)*; X25 = CCOc1ncc(Cl)cc1C[C@@H](C(=O)[*:2])N(C)[*:1]; Pro(trans-4-F) = O=C(O)[C@@H]1C[C@@H](F)CN1; Gly(cPr) = N[C@H](C(=O)O)C1CC1
quantity_measured: GI50 (nM)

CCOc1ncc(Cl)cc1C[C@H]1C(=O)N(C)CCCCCCC[C@H](N(C)C(=O)[C@@H](NC(=O)[C@@H]2C[C@@H](F)CN2C(=O)C2(C(F)(F)F)CC(F)(F)C2)C2CC2)C(=O)N[C@@H](CC(C)C)C(=O)N1C [Example 225] ({cBuCO(3,3-F2-1-CF3)}-[Pro(trans-4-F)][Gly(cPr)][NMehhhLys(Me)]L[X25]; lactam 3-C) :: 30
CC(C)C[C@@H]1NC(=O)[C@@H](N(C)C(=O)[C@@H](NC(=O)[C@@H]2C[C@@H](F)CN2C(=O)C2(C(F)(F)F)CC(F)(F)C2)C2CC2)CCCCCCCN(C)C(=O)[C@H](Cc2cc(Cl)ccc2-c2cnn(S(=O)(=O)C3CC3)c2)N(C)C1=O [Example 254] ({cBuCO(3,3-F2-1-CF3)}-[Pro(trans-4-F)][Gly(cPr)][NMehhhLys(Me)]L[X42]; lactam 3-C) :: 20
Cc1nc2c(F)cc(-c3ccc(Cl)cc3C[C@H]3C(=O)N(C)CCCCCCC[C@H](N(C)C(=O)[C@@H](NC(=O)[C@@H]4C[C@@H](F)CN4C(=O)C4(C(F)(F)F)CC(F)(F)C4)C4CC4)C(=O)N[C@@H](CC(C)C)C(=O)N3C)cc2n1C(C)C [Example 231] ({cBuCO(3,3-F2-1-CF3)}-[Pro(trans-4-F)][Gly(cPr)][NMehhhLys(Me)]L[X61]; lactam 3-C) :: 40
